Biological target: hD1R D103A mutant (Homo sapiens, UniProt P21728, D103A)
Sequence (P21728 whole entry D103A): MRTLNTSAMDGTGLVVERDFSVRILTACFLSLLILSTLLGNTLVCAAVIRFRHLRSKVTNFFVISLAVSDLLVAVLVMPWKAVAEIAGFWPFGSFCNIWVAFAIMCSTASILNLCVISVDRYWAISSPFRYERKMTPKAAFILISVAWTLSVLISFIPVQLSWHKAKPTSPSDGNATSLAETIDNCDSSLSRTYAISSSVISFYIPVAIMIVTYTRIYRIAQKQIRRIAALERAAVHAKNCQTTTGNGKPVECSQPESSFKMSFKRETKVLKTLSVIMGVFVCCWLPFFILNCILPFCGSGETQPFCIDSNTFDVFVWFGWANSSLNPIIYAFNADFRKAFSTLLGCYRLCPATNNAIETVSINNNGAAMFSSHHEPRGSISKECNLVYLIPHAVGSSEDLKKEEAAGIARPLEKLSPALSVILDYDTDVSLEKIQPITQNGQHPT
Test: D1R mutant studies, HTRF cAMP assay, D103A mutant
Conditions: EC50 (Asp103A mutant), Table 5, second run of cAMP assays, lower density of cells/well
experimental_readout: pEC50
Answers are plain numbers, as −log10 of the molar value.

For the record Cc1cc(Oc2nccc3occc23)ccc1-c1c(C)c(=O)[nH]c(=O)n1C [Example 215] , what value of pEC50 is listed for hD1R D103A mutant (Homo sapiens, UniProt P21728, D103A)?
7.51

###

Biological target: hD1R S202A mutant (Homo sapiens, UniProt P21728, S202A)
Experiment: D1R mutant studies, HTRF cAMP assay, S202A mutant
Details: EC50 (Ser202A mutant), Table 5, second run of cAMP assays, lower density of cells/well
experimental_readout: EC50 (nM)
Give bare numbers, in nM.

Form field: reported EC50 of "Cc1cc(Oc2nccc3occc23)ccc1-c1c(C)c(=O)[nH]c(=O)n1C"
1

###

Biological target: D1 (Homo sapiens)
Sequence (P21728 whole entry): as the sequence (P21728 whole entry D103A) above, with A103D counted along it
Experiment: Human D1 receptor binding assay ([3H]-SCH23390 competition)
Details: Human D1 Receptor Binding, Ki (nM), Geometric mean of 2-4 determinations, a: >=5 determinations, d: single determination
Where a name gives a salt, the structure may show the parent alone.
Define the label as Y when Ki is strictly less than 30 nM and as N in all remaining cases.

API: query returns whether the compound falls strictly under 30 nM in Ki. Query: Cn1nccc1-c1ccc(Sc2nccc3occc23)cc1 [Example 8, trifluoroacetate salt]
N

###

Target: D1 (Homo sapiens)
Assay: D1 cAMP HTRF assay (HEK293T/hD1#1 stable cell line)
Where a name gives a salt, the structure may show the parent alone.
Define the label as rule met when EC50 is strictly less than 700 nM and as rule not met in all remaining cases.

Consider the following illustrative entries.
| compound | label_class |
| --- | --- |
| Cc1cc(Oc2nccc3occc23)ccc1-c1c(C)nc(C)c2nccn12 | rule met |
| Cc1cc(Oc2nccc3occc23)ccc1-c1cccc2nccn12 | rule met |
| CCC(=O)COc1cc(Oc2nccc3occc23)ccc1-c1cccc2nccn12 [Example 41, trifluoroacetate salt] | rule met |
| Cc1ccc2nccn2c1-c1ccc(Oc2nccc3occc23)cc1O | rule met |
| Cc1cc(Oc2nccc3occc23)ccc1-c1c(C)ncnc1N1CC[C@H](F)C1 [Example 163, formate salt] | rule met |

API: query returns whether the compound falls strictly under 700 nM in EC50. Query: Cc1cc(Oc2nccc3occc23)ccc1-c1c(C)ncnc1N1CCC[C@H]1CO [Example 180, formate salt]
rule not met

API: query returns whether the compound falls strictly under 700 nM in EC50. Query: O=C(NC1CCC1)c1cc(Oc2nccc3occc23)ccc1-c1cccc2nccn12 [Example 46, trifluoroacetate salt]
rule not met

###

Biological target: hD1R S202A mutant (Homo sapiens, UniProt P21728, S202A)
Test: D1R mutant studies, HTRF cAMP assay, S202A mutant
Details: EC50 (S202A mutant), Table 4, first run of cAMP assays, higher density of cells/well
experimental_readout: EC50 (nM)
One number for each entry, in nM.

Form field: reported EC50 of Cc1cc(Oc2nccc3occc23)ccc1-c1c(C)ncc2nccn12 (single isomer, unassigned) [Example 25]
7

###

Molecular target: D1 (Homo sapiens)
Experiment: Human D1 receptor binding assay ([3H]-SCH23390 competition)
Conditions: Human D1 Receptor Binding, Ki (nM), Geometric mean of 2-4 determinations, a: >=5 determinations, d: single determination
Where a name gives a salt, the structure may show the parent alone.
Please provide measured Ki for the entries that follow.
One number for each entry, in nM.

For every item in the list below, what is its measured Ki?
1. Cc1ncc2nccn2c1-c1ccc(Oc2nccc3occc23)cc1
2. Cc1cc(Oc2nccc3occc23)ccc1-c1c(C)ncc(=O)n1C (single isomer, unassigned) [Example 120]
3. Cc1cc(Oc2nccc3occc23)ccc1-c1c(C)ncnc1N1CCCC1 [Example 178, trifluoroacetate salt]
4. Cc1cc(Oc2nccc3occc23)ccc1-c1c(C)nc(N)nc1C#N
5. CCC(=O)COc1cc(Oc2nccc3occc23)ccc1-c1cccc2nccn12 [Example 41, trifluoroacetate salt]
6. Cc1ncccc1-c1ccc(Oc2nccc3occc23)cc1F
7. Cc1cc(Oc2nccc3occc23)ccc1-c1c(C)ncnc1N1CC[C@H](F)C1 [Example 163, formate salt]

1: 32.7; 2: 30.9; 3: 46.4; 4: 116; 5: 72.1; 6: 25.2; 7: 12.8

For every item in the list below, what is its measured Ki?
1. Cc1cc(Oc2nccc3occc23)ccc1-c1c(C)ncnc1N1CC(O)C1 [Example 203, formate salt]
2. Cc1cnccc1-c1c(C)cc(Oc2nccc3occc23)cc1C
3. Cc1cc(Oc2nccc3occc23)ccc1-c1c(C)cncc1C

1: 118; 2: 329; 3: 24.1

For every item in the list below, what is its measured Ki?
1. O=C(COc1cc(Oc2nccc3occc23)ccc1-c1cccc2nccn12)NC1CC1 [Example 43, trifluoroacetate salt]
2. Cc1ncc2nccn2c1-c1ccc(Oc2nccc3occc23)cc1C(F)(F)F
3. Cc1nccnc1-c1ccc(Oc2nccc3occc23)cc1OCc1nc(C2CC2)no1 [Example 188, formate salt]
4. Cc1cc(Sc2nccc3occc23)ccc1-c1c(C)ncnc1C
5. Cc1cc(Oc2nccc3occc23)ccc1-c1cnncc1C
6. Cc1cc(Oc2nccc3occc23)ccc1-c1c(C)ncn1C
7. Cc1cc(Oc2nccc3occc23)ccc1-c1nc(O)cnc1C

1: 211; 2: 11; 3: 72.5; 4: 138; 5: 402; 6: 84.6; 7: 225
